fold reactivity over background by entry:
# TESTED SYSTEM: hemagglutinin (HA) of influenza B virus B/Malaysia (Victoria lineage) (influenza B virus B/Malaysia/04 …)
# MEASUREMENT NOTES: recombinant HA ELISA (AttoPhos fluorescence, mean of triplicates)
REPORTED PROPERTY: fold reactivity over background (fold over background)

1. TRL579 (antibody, V domains shown) VH: QVQLVQSGAEVKKPGASVKVSCKTSGYTFTAYTIHWVRQAPGQRLEWMGWINAGNGHTKYSQRFKGRVTITRDTSARTTYMELRSLTSEDTALYFCARGPETYYYDKTNWLNSHPDEYFQHWGHGTQVTVSS VL: DIQMTQSPSTLSASVGDRVTITCRASQTINNYLAWYQQKPGKAPKLLIYKASSLESGVPSRFSGSGSGTEFTLTISSLQPDDFATYYCQEYNNDSPLTFGGGTKVEIKR | 1.1
2. TRL812 (antibody, V domains shown) VH: QVQLVQSGGGVVQPGRSLRLSCAASGFNFSSYGMHWVRQAPGKGLEWLSVIWSGGSNKYYADSVKGRFTISRDDSKNTVYLQMNSLRDEDTAVYYCARAHTALTRFRWLDPWGQGILVTVSS VL: DIVMTQSPATLSVSPGEGATLSCRASQGIGSNLAWYQHKPGQAPRLLIYAASTRATGVPARFSGSGSGTEFTLTISSLQSEDLAVYFCQQYNTWPLTFGGGTKVEIIR | 25.6
3. TRL813 (antibody, V domains shown) VH: QVQLVESGGGLVQPGGSLRLSCAASGFIFGDFAIHWVRQASGKGLEWVARIRSGLNRFETAYAASVEGRLTISRDDSKSMAYLQMNNVKAEDTAVYLCTYLVGAVGFQHWGQGTLVTVSS VL: DIVMTQSPSTLSASVGDRVTITCRASQTIYRWLAWYQQKPGKAPKVLIYKASTLESGVPSRFSGSGSGTEFTLAISSLQPDDFATYYCQQYNSFPYRFGQGTKVEIKR | 25.6
4. TRL053 (antibody, V domains shown) VH: QVQLVQSGAEVRKPGSSVKVSCKVSGGIIRKYAINWVRQAPGQGLEWMGGIIAIFNTANYAQKFQGRVTITADESTSTVYMELSSLRSEDTALYYCARGMNYYSDYFDYWGQGSLVTVSP VL: EIVLTQSPGTLSLSPGERATLSCRASQSVRSNNLAWYQHKPGQAPRLLIFGASSRATGIPDRFSGSGSGTDFTLTISRLEPEDFAVYYCQQYGSSPALTFGGGTKVEIKR | 1.6
5. TRL845 (antibody, V domains shown) VH: QVQLVQSGGDLVQPGGSLRLSCAASGFTFSRYSMNWVRQAPGMGLEWVAYISDTSRTIYYADSVKGRFTISRDNAKNSLYLQMKSLRDEDTAVYYCARDPDTPFVRAFDSWGQGTLVTVSS VL: DIVLTQSPSFLSASVGDRVTITCRASQLISSYFAWYQQKPGKPPKLLIYAASTLQSGVPSRFSGSGSGTQFSLTISSLQPEDFATYYCQQLNSYPPITFGQGTRLEIKR | 25.6
